Tested on: Streptococcus gordonii
MEASUREMENT_PROTOCOL: Growth inhibition of Streptococcus gordonii at 40 uM measured after 24 hrs
TEST_CONDITIONS: read-out: GI
MEASUREMENT_KIND: inhibition at 40 µM (%)

[
  {
    "CHEMICAL_STRING": "COc1ccc(-c2nc(-c3cccc(-n4cc(-c5ccccc5OC)nn4)c3)oc2-c2ccc(OC)cc2)cc1",
    "MEASUREMENT_KIND": "inhibition at 40 µM",
    "RESULT_NUMBER": 0.8
  },
  {
    "CHEMICAL_STRING": "Fc1ccc(-c2nc(-c3ccc(-n4cc(-c5ccccc5C(F)(F)F)nn4)cc3)oc2-c2ccc(F)cc2)cc1",
    "MEASUREMENT_KIND": "inhibition at 40 µM",
    "RESULT_NUMBER": -11
  },
  {
    "CHEMICAL_STRING": "COc1ccccc1-c1cn(-c2cccc(-c3nc(-c4ccc(Br)cc4)c(-c4ccc(Br)cc4)o3)c2)nn1",
    "MEASUREMENT_KIND": "inhibition at 40 µM",
    "RESULT_NUMBER": 10.5
  },
  {
    "CHEMICAL_STRING": "FC(F)(F)c1ccccc1-c1cn(-c2cccc(-c3nc(-c4ccc(Br)cc4)c(-c4ccc(Br)cc4)o3)c2)nn1",
    "MEASUREMENT_KIND": "inhibition at 40 µM",
    "RESULT_NUMBER": 2
  },
  {
    "CHEMICAL_STRING": "COc1ccc(-c2nc(-c3cccc(-n4cc(-c5cccc(F)c5)nn4)c3)oc2-c2ccc(OC)cc2)cc1",
    "MEASUREMENT_KIND": "inhibition at 40 µM",
    "RESULT_NUMBER": -9.1
  },
  {
    "CHEMICAL_STRING": "COc1ccc(-c2nc(-c3cccc(-n4cc(-c5ccccc5C(F)(F)F)nn4)c3)oc2-c2ccc(OC)cc2)cc1",
    "MEASUREMENT_KIND": "inhibition at 40 µM",
    "RESULT_NUMBER": -9.7
  },
  {
    "CHEMICAL_STRING": "COc1ccc(-c2nc(-c3cccc(-n4cc(-c5ccc(F)cc5)nn4)c3)oc2-c2ccc(OC)cc2)cc1",
    "MEASUREMENT_KIND": "inhibition at 40 µM",
    "RESULT_NUMBER": -22.1
  }
]

###

MEASUREMENT_PROTOCOL: Inhibition of Porphyromonas gingivalis ATCC 33277 MFA interaction with Streptococcus gordonii DL1(1) antigen 1/2 assessed as inhibition of 5(6)-carboxyfluorescein N-hydroxysuccinimide ester-labeled Porphyromonas gingivalis ATCC 33277 cell adhesion to hexidium iodide-labeled Streptococcus gordonii DL1(1) by measuring inhibition of biofilm formation preincubated with Porphyromonas gingivalis ATCC 33277 for 30 mins followed by addition to Streptococcus gordonii DL1(1) culture measured after 22 hrs by laser scanning confocal microscopy
Format: cell-based
pIC50: −log10 of the molar value.
MEASUREMENT_KIND: pIC50

[
  {
    "CHEMICAL_STRING": "Cc1ccccc1-c1cn(Cc2nc(-c3ccccc3)c(-c3ccccc3)o2)nn1",
    "QUALIFIER_OPERATOR": "<",
    "RESULT_NUMBER": 4.25
  },
  {
    "CHEMICAL_STRING": "COc1ccc(-c2nc(-c3cccc(-n4cc(-c5ccc(F)cc5)nn4)c3)oc2-c2ccc(OC)cc2)cc1",
    "QUALIFIER_OPERATOR": "=",
    "RESULT_NUMBER": 4.28
  },
  {
    "CHEMICAL_STRING": "CCCCCc1ccc(-c2cn(Cc3nc(-c4ccccc4)c(-c4ccccc4)o3)nn2)cc1",
    "QUALIFIER_OPERATOR": "=",
    "RESULT_NUMBER": 4.45
  },
  {
    "CHEMICAL_STRING": "COc1ccc(-c2nc(-c3cccc(-n4cc(-c5ccc(Oc6ccccc6)cc5)nn4)c3)oc2-c2ccc(OC)cc2)cc1",
    "QUALIFIER_OPERATOR": "<",
    "RESULT_NUMBER": 4.22
  },
  {
    "CHEMICAL_STRING": "c1ccc(Oc2ccc(-c3cn(Cc4nc(-c5ccccc5)c(-c5ccccc5)o4)nn3)cc2)cc1",
    "QUALIFIER_OPERATOR": "<",
    "RESULT_NUMBER": 4.22
  },
  {
    "CHEMICAL_STRING": "COc1ccccc1-c1cn(Cc2nc(-c3ccccc3)c(-c3ccccc3)o2)nn1",
    "QUALIFIER_OPERATOR": "<",
    "RESULT_NUMBER": 4.22
  },
  {
    "CHEMICAL_STRING": "COc1ccc2cc(-c3cn(-c4ccc(-c5nc(-c6ccc(F)cc6)c(-c6ccc(F)cc6)o5)cc4)nn3)ccc2c1",
    "QUALIFIER_OPERATOR": "=",
    "RESULT_NUMBER": 4.28
  },
  {
    "CHEMICAL_STRING": "COc1ccccc1-c1cn(-c2ccc(-c3nc(-c4ccc(Cl)cc4)c(-c4ccc(Cl)cc4)o3)cc2)nn1",
    "QUALIFIER_OPERATOR": "=",
    "RESULT_NUMBER": 4.43
  },
  {
    "CHEMICAL_STRING": "FC(F)(F)c1ccccc1-c1cn(-c2ccc(-c3nc(-c4ccc(Cl)cc4)c(-c4ccc(Cl)cc4)o3)cc2)nn1",
    "QUALIFIER_OPERATOR": "=",
    "RESULT_NUMBER": 4.60
  },
  {
    "CHEMICAL_STRING": "COc1ccccc1-c1cn(-c2ccc(-c3nc(-c4ccc(F)cc4)c(-c4ccc(F)cc4)o3)cc2)nn1",
    "QUALIFIER_OPERATOR": "=",
    "RESULT_NUMBER": 5.11
  },
  {
    "CHEMICAL_STRING": "CCCCCc1ccc(-c2cn(-c3cccc(-c4nc(-c5ccc(OC)cc5)c(-c5ccc(OC)cc5)o4)c3)nn2)cc1",
    "QUALIFIER_OPERATOR": "<",
    "RESULT_NUMBER": 4.22
  },
  {
    "CHEMICAL_STRING": "COc1ccccc1-c1cn(Cc2nc(-c3ccc(F)cc3)c(-c3ccc(F)cc3)o2)nn1",
    "QUALIFIER_OPERATOR": "<",
    "RESULT_NUMBER": 4.22
  },
  {
    "CHEMICAL_STRING": "c1ccc(-c2nc(Cn3cc(-c4cccnc4)nn3)oc2-c2ccccc2)cc1",
    "QUALIFIER_OPERATOR": "<",
    "RESULT_NUMBER": 4.22
  },
  {
    "CHEMICAL_STRING": "FC(F)(F)c1ccccc1-c1cn(Cc2nc(-c3ccc(Cl)cc3)c(-c3ccc(Cl)cc3)o2)nn1",
    "QUALIFIER_OPERATOR": "=",
    "RESULT_NUMBER": 4.25
  },
  {
    "CHEMICAL_STRING": "COc1ccccc1-c1cn(-c2cccc(-c3nc(-c4ccc(Br)cc4)c(-c4ccc(Br)cc4)o3)c2)nn1",
    "QUALIFIER_OPERATOR": "=",
    "RESULT_NUMBER": 4.82
  },
  {
    "CHEMICAL_STRING": "Fc1ccc(-c2nc(Cn3cc(-c4ccccc4C(F)(F)F)nn3)oc2-c2ccc(F)cc2)cc1",
    "QUALIFIER_OPERATOR": "<",
    "RESULT_NUMBER": 4.22
  },
  {
    "CHEMICAL_STRING": "FC(F)(F)c1cc(-c2cn(Cc3nc(-c4ccccc4)c(-c4ccccc4)o3)nn2)cc(C(F)(F)F)c1",
    "QUALIFIER_OPERATOR": "<",
    "RESULT_NUMBER": 4.22
  },
  {
    "CHEMICAL_STRING": "COc1ccccc1-c1cn(Cc2nc(-c3ccc(Cl)cc3)c(-c3ccc(Cl)cc3)o2)nn1",
    "QUALIFIER_OPERATOR": "=",
    "RESULT_NUMBER": 4.25
  }
]

Source of measurements: ChEMBL document CHEMBL3861994
